Activity values for the molecules below.
Test system: Staphylococcus aureus
Experiment: Antimicrobial activity against heterogeneous vancomycin-intermediate Staphylococcus aureus assessed as growth inhibition at 16 times MIC
Type: functional
Design: scale not given: the % may be the effect or the level left

{"molecule": "CCCCCCCCCC(=O)N[C@@H](Cc1c[nH]c2ccccc12)C(=O)N[C@H](CC(N)=O)C(=O)N[C@@H](CC(=O)O)C(=O)N[C@@H]1C(=O)NCC(=O)N[C@@H](CCCN)C(=O)N[C@@H](CC(=O)O)C(=O)N[C@H](C)C(=O)N[C@@H](CC(=O)O)C(=O)NCC(=O)N[C@H](CO)C(=O)N[C@@H]([C@H](C)CC(=O)O)C(=O)N[C@@H](CC(=O)c2ccccc2N)C(=O)O[C@@H]1C", "Activity / %": 100}
{"molecule": "CN(C)c1cc(NC(=O)CNC(C)(C)C)c(O)c2c1C[C@H]1C[C@H]3[C@H](N(C)C)C(O)=C(C(N)=O)C(=O)[C@@]3(O)C(O)=C1C2=O [TIGECYCLINE]", "Activity / %": 100}
